Tested on: T47D
Run description: NCI tumour cell line growth inhibition, 48 h
Calls of active or inactive are those of the source. Cut-off read from the data, not from the text of the source: active = GI50 up to about 1.1 µM and inactive = higher.
Outcome (select one): y (active), n (inactive)

Called result for "CCCCCCc1cc2cc(C(=O)NCc3ccccc3)c(=N)oc2cc1O"
n

I would be grateful if you could indicate the recorded call for "COc1cc2c(cc1OCCCOS(C)(=O)=O)N=C[C@@H]1CCCN1C2=O" .
n

How did this test come out for "O=C1C(=O)N(c2cccc(C(F)(F)F)c2)C(=O)C(=O)C1c1nc2ccccc2s1" ?
n

Please share the test call associated with COc1ccc2c3c(c4cc(OC)c(OC)cc4c2c1)CN1CCC[C@H]1[C@@H]3O [TYLOPHORININE] .
y

###

Test system: NCI-H23
Run description: NCI tumour cell line growth inhibition, 48 h
Active and inactive are the calls of the source. No stated cut-off is given here; in the data, active = GI50 up to about 1.1 µM and inactive = higher.
Response enum: active, inactive

Please let me know the test result on file for "O=[N+]([O-])c1cccc([N+](=O)[O-])c1Cl" .
inactive

Lab log entry: "Cc1cc2nc3c(C#N)c(-c4ccccc4)cc(Nc4cccc(C(F)(F)F)c4)n3c2cc1C" — outcome as called in the assay?
inactive

Which outcome was assigned to "CCCCCCc1cc2cc(C(=O)NCc3ccccc3)c(=N)oc2cc1O" in this test?
inactive

// return assay outcome for C=C/C(C)=C\CC1[C@](C)(O)CC[C@H]2C(C)(C)C(=O)CC[C@]12C (stereo not given in full)
inactive

Hi, do you know how CCC/C(=N/NC(=O)C(N)=O)C(CC)C(=O)CCC(=O)N(Cc1ccccc1)Cc1ccccc1 (stereo not given) came out in this test?
inactive

What was the test verdict on "C/C(=C\C(=N\NC(=N)N)c1ccccc1)c1ccccc1" ?
active

Hi, do you know how N#CC(NNC(=O)Cc1ccccc1)c1ccc([N+](=O)[O-])cc1 (stereo not given) came out in this test?
inactive

What did the test return for "Cc1[nH]n(C2=NCCN2)c(=O)c1Cc1ccccc1" ?
inactive

Dear colleague, could you share the recorded outcome for "Oc1cc(-c2cccc(C(F)(F)F)c2)nc2cc3c(cc12)OCO3" when you have a moment?
inactive

// return assay outcome for "CSc1c(C#N)c(=O)[nH]c2[nH]nc(C)c12"
inactive

Identify the outcome logged in this assay for the compound shown: CC1C(OS(=O)(=O)c2ccc3nc(S)sc3c2)CC2C3(C)CCC2(C(C)C(=O)O)C(O)C13 (stereo not given)
inactive

Test call, this compound: "COC(=O)C1(C(=O)OC)CC(=O)c2c(OC(=O)c3cccc(OC)c3C#N)ccc(OC(=O)c3cccc(OC)c3C#N)c2C1"
inactive

How was CCC1C(c2cccc(OC)c2O)c2cc3c(cc2OC1N1CCCC1)OCO3 (stereo not given) classified in this test?
inactive

Which outcome did this test record for the compound "Cc1ccc(Cl)c2c(=O)c3ccc(N)cc3sc12" ?
inactive

Identify the outcome logged in this assay for the compound shown: CN(C)P(=O)(Oc1ccc(CC(NC(=O)OCc2ccccc2)C(=O)OCc2ccccc2)cc1)N(C)C (stereo not given)
inactive

Please let me know the test result on file for CCOC(=O)C1=C(OC(OCC)C(CC)[Se]c2ccccc2)CCC1 (stereo not given) .
inactive

Can you look up the reported call for C=CCN(N=O)C(=O)N(CCCCC(NC(C)=O)C(=O)NCc1ccccc1)Cc1ccccc1 (stereo not given) for me?
inactive

Recorded test outcome, item "CCOC(=O)CSc1nc(-c2ccc(Cl)cc2)c(C#N)c(=O)[nH]1"
inactive

Please share the test call associated with "COc1ccc2nc3cc(Cl)ccc3c(NCCCCCC(=O)NC(COc3cnc4c(ccc5cccnc54)c3)COc3cnc4c(ccc5cccnc54)c3)c2c1" .
inactive

Hey, what did the test say about COC(=O)c1ccc2c(c1)CC1(C2)Cc2cc3c(c(C(=O)OC)c2C1)CCCC3 (stereo not given) ?
inactive
